System: 855422-203-R-J1-PDC complex spheroids, viability;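 also: spheroids exposed to drugs for seven days before readout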
test: Anticancer human tumor 855422-203-R-J1-PDC patient-derived bladder carcinoma cell line growth inhibition [CLK]; active = viability on the fitted dose curve at most 10% of control; inactive = the rest
conditions used: second compound 0.0316 µM; first compound 1 µM
Hi there, use one of these labels in your reply, thanks! true = active, false = inactive

How was COc1cccc2c1C(=O)c1c(O)c3c(c(O)c1C2=O)CC(O)(C(=O)CO)CC3OC1CC(N)C(O)C(C)O1 (centres undefined) + CN1CCN(c2cc(C(=O)Nc3cc4cc(-c5cnn(C)c5)ccc4cn3)ccn2)CC1 classified in this test? true

Same thing, different molecule: CC(CO)NC(=O)c1cc(-c2ccc(Cl)cc2)nn(-c2cnn(C)c2)c1=O (centres undefined) + CNC(=O)c1ccc(Nc2nc(OC3CCCC3)c3c(-c4ccc5nc(C)oc5c4)c[nH]c3n2)c(OC)c1 false

Same thing, different molecule: CCN1CCN(Cc2ccc(Nc3ncc(F)c(-c4cc(F)c5nc(C)n(C(C)C)c5c4)n3)nc2)CC1 + CNC(=O)c1ccc(Nc2nc(OC3CCCC3)c3c(-c4ccc5nc(C)oc5c4)c[nH]c3n2)c(OC)c1 false

Same thing, different molecule: O=C(c1cc(Cc2n[nH]c(=O)c3ccccc23)ccc1F)N1CCN(C(=O)C2CC2)CC1 + CN1CCN(c2cc(C(=O)Nc3cc4cc(-c5cnn(C)c5)ccc4cn3)ccn2)CC1 false

The reported measurements were obtained from PubChem BioAssay AID2060609.
